System: HPBALL cells
TEST_DETAILS: CellTiter-Glo cell viability assay, HPBALL
Format: cell-based, human
EXPERIMENTAL_SETUP: Homo sapiens, HPBALL; T-ALL; 72 h, CellTiter-Glo, n = 3
MEASURED_PROPERTY: IC50 (µM)
Lab book: enter the figure in µM, no units written.

Guide cases for IC50, answers given:
{"columns": ["MOLECULE", "IC50 [µM]"],
 "data": [
  ["C[C@H]1[C@H](OCc2ccc(C(=O)NO)cc2)O[C@@H]2O[C@@]3(C)CC[C@H]4[C@H](C)CC[C@@H]1[C@@]24OO3 [Compound 7d]", 6.81],
  ["C[C@@H]1CC[C@H]2[C@@H](C)C(OCc3ccc(/C=C/C(=O)Nc4ccccc4N)cc3)O[C@@H]3O[C@@]4(C)CC[C@@H]1[C@]32OO4 (stereo partly shown) [Compound 8]", 1.69],
  ["C[C@H]1[C@H](Sc2ccc(CC(=O)NO)cc2)O[C@@H]2O[C@@]3(C)CC[C@H]4[C@H](C)CC[C@@H]1[C@@]24OO3 [(β)-7e]", 20.6]
]}

Below: the item to evaluate.
In: GET /values?readout=IC50&item= C[C@H]1[C@@H](O)O[C@@H]2O[C@@]3(C)CC[C@H]4[C@H](C)CC[C@@H]1[C@@]24OO3 [DHA, dihydroartemisinin]
Out: 9.93

###

TGT: human HDAC6 (hHDAC6) (Homo sapiens)
Construct: purchased BPS Bioscience Inc. 50006
Sequence (Q9UBN7 1-1215): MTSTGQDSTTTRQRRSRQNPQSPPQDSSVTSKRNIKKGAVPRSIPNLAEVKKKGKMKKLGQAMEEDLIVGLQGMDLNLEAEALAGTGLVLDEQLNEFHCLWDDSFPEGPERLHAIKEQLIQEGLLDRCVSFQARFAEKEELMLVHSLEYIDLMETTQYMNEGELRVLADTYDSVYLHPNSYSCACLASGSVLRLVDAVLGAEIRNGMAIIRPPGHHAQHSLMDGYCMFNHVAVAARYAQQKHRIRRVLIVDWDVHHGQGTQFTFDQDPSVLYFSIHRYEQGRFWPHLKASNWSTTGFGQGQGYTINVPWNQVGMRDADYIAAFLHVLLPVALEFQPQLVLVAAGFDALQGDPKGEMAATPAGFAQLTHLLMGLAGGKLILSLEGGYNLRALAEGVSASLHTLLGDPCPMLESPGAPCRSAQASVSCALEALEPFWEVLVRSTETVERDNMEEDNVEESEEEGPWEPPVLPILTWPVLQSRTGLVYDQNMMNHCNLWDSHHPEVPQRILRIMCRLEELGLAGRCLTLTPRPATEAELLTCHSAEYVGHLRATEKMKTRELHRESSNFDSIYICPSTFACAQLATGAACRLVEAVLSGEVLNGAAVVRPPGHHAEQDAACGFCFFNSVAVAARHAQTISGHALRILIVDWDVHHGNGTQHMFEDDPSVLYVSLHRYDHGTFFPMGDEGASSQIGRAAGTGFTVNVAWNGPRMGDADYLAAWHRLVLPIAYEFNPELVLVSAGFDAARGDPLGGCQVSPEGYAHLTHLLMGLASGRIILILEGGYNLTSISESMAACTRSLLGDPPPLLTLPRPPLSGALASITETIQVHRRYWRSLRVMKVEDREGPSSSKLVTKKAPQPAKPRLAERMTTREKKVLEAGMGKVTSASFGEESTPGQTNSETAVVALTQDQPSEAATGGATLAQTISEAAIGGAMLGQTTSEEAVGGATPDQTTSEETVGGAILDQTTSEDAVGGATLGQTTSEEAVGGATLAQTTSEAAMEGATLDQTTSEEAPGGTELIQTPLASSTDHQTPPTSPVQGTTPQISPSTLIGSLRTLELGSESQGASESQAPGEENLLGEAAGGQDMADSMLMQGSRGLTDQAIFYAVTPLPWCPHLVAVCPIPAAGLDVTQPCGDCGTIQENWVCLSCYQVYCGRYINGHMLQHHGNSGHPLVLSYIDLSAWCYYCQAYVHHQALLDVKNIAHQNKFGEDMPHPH
TEST_DETAILS: In vitro human HDAC6 assay (ZMAL substrate)
Format: biochemical
EXPERIMENTAL_SETUP: Selectivity Index = (hHDAC1 IC50)/(hHDAC6 IC50)
MEASURED_PROPERTY: SI 1/6
Please reply with the value in numeric form only.

Guide cases for SI 1/6, answers given:
{"columns": ["MOLECULE", "SI 1/6"],
 "data": [
  ["C[C@H]1[C@H](OCc2ccc(C(=O)NO)cc2)O[C@@H]2O[C@@]3(C)CC[C@H]4[C@H](C)CC[C@@H]1[C@@]24OO3", 178],
  ["C[C@H]1[C@@H](SCc2ccc(C(=O)NO)cc2)O[C@@H]2O[C@@]3(C)CC[C@H]4[C@H](C)CC[C@@H]1[C@@]24OO3", 56]
]}

Below: the item to evaluate.
In: GET /values?readout=SI 1/6&item= C[C@@H]1CC[C@H]2[C@@H](C)C(SCCCCCC(=O)NO)O[C@@H]3O[C@@]4(C)CC[C@@H]1[C@]32OO4 (stereo partly shown)
Out: 10

###

System: A2780 cells
TEST_DETAILS: MTT cell viability assay
Format: cell-based
EXPERIMENTAL_SETUP: Homo sapiens, 72 h, n ≥ 3 in triplicate, mean ± SD
As shown below, each of these molecules has a reported pIC50 value.
pIC50 here is simply -log10 of the concentration when that concentration is written in mol/L.

Guide cases for pIC50, answers given:
{"columns": ["MOLECULE", "MEASURED_PROPERTY", "DATA_VALUE"],
 "data": [
  ["C[C@H]1[C@H](Sc2ccc(CC(=O)NO)cc2)O[C@@H]2O[C@@]3(C)CC[C@H]4[C@H](C)CC[C@@H]1[C@@]24OO3 [(β)-7e]", "pIC50", 5.68],
  ["C[C@@H]1CC[C@H]2[C@@H](C)C(OCc3ccc(/C=C/C(=O)O)cc3)O[C@@H]3O[C@@]4(C)CC[C@@H]1[C@]32OO4 (stereo partly shown) [Compound 6a]", "pIC50", 5.47],
  ["C[C@@H]1CC[C@H]2[C@@H](C)C(OCc3ccc(/C=C/C(=O)NO)cc3)O[C@@H]3O[C@@]4(C)CC[C@@H]1[C@]32OO4 (stereo partly shown) [Compound 7a]", "pIC50", 5.71]
]}

In: GET /values?readout=pIC50&item= C[C@H]1[C@@H](SCc2ccc(C(=O)NO)cc2)O[C@@H]2O[C@@]3(C)CC[C@H]4[C@H](C)CC[C@@H]1[C@@]24OO3 [(α)-7c]
Out: 5.96

###

System: A2780 cells
TEST_DETAILS: MTT cell viability assay
Type: cell-based
EXPERIMENTAL_SETUP: Homo sapiens, 72 h, n ≥ 3 in triplicate, mean ± SD
MEASURED_PROPERTY: IC50 (nM)
Lab book: enter the figure in nM, no units written.

{"columns": ["COMPOUND", "MEASUREMENT_UNITS", "DATA_VALUE"],
 "data": [
  ["C[C@@H]1CC[C@H]2[C@@H](C)C(OCc3ccc(/C=C/C(=O)Nc4ccccc4N)cc3)O[C@@H]3O[C@@]4(C)CC[C@@H]1[C@]32OO4 (stereo partly drawn)", "nM", 1470],
  ["C[C@H]1[C@H](SCc2ccc(C(=O)NO)cc2)O[C@@H]2O[C@@]3(C)CC[C@H]4[C@H](C)CC[C@@H]1[C@@]24OO3", "nM", 880]
]}

In: Recall the recorded IC50 for C[C@@H]1CC[C@H]2[C@@H](C)C(SCCCCCC(=O)NO)O[C@@H]3O[C@@]4(C)CC[C@@H]1[C@]32OO4 (stereo partly drawn) with A2780 cells and state it.
Out: 1520

###

// IC50 collected for human HDAC1 (hHDAC1) (Homo sapiens)

Guide cases for IC50, answers given:
{"columns": ["MOLECULE", "IC50"],
 "data": [
  ["C[C@@H]1CC[C@H]2[C@@H](C)C(OCc3ccc(/C=C/C(=O)O)cc3)O[C@@H]3O[C@@]4(C)CC[C@@H]1[C@]32OO4 (stereo partly drawn) [Compound 6a]", "> 10 µM"],
  ["C[C@@H]1CC[C@H]2[C@@H](C)C(OCc3ccc(/C=C/C(=O)NO)cc3)O[C@@H]3O[C@@]4(C)CC[C@@H]1[C@]32OO4 (stereo partly drawn) [Compound 7a]", "0.546 µM"]
]}

Below: the item to evaluate.
In: Recall the recorded IC50 for C[C@@H]1CC[C@H]2[C@@H](C)C(OCc3ccc(/C=C/C(=O)Nc4ccccc4N)cc3)O[C@@H]3O[C@@]4(C)CC[C@@H]1[C@]32OO4 (stereo partly drawn) [Compound 8] with human HDAC1 (hHDAC1) (Homo sapiens) and state it.
Sequence (Q13547 whole entry): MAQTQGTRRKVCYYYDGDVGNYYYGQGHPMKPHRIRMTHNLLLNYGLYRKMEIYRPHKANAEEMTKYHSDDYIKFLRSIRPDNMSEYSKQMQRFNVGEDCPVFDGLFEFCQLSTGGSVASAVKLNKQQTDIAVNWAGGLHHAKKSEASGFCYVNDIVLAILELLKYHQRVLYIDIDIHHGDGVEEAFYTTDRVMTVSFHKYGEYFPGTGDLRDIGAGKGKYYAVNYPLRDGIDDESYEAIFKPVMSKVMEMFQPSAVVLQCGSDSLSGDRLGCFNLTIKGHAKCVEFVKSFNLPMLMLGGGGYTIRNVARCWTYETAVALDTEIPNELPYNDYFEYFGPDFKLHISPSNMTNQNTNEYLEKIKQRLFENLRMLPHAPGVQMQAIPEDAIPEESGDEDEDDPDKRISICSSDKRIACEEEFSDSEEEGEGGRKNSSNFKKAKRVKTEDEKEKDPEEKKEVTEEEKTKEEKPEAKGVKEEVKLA
Out: > 3.33 µM
